assay: self-splicing fitness, log relative to wild type (ln ratio); higher = more splicing; Tetrahymena group I intron in knt gene, E. coli kanamycin selection, DiMSum; sequences stand for … in CUCUCU…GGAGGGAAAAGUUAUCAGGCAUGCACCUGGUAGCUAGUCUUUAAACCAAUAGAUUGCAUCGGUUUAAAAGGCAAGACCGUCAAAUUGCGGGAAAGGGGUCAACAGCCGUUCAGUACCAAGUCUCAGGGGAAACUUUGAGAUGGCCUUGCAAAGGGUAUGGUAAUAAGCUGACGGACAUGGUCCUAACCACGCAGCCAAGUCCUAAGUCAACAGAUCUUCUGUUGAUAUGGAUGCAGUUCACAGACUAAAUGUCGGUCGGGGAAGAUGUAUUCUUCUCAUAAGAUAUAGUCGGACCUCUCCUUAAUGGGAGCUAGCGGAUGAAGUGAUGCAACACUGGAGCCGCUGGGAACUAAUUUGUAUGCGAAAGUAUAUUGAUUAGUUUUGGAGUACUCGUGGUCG; conditions: 30 °C;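 also: selection with 25 µg/mL kanamycin versus none on LB agar overnight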

| macromolecule-sequence | self-splicing fitness (ln) |
| --- | --- |
| AGCCAGCAAUAUUACGAGCG | -1.36 |
| AAACAGCAAUAUUACGGGCA | -1.86 |
| CGUGAGCAAUAUUACGAUGC | -0.111 |
| CACAAGCAAUAUUACGAGGC | -3.54 |
| UGCGAGCAAUAUUACGCAAG | -2.27 |
| UCGUAGCAAUAUUACGUAGC | -2.27 |
| CGCAAGCAAUAUUACGAACG | -1.23 |
| GGACAGCAAUAUUACGGGAA | -2.7 |
| GCGAAGCAAUAUUACGUUGU | -3.58 |
| CUUGAGCAAUAUUACGCCAC | -2.82 |
| AACGAGCAAUAUUACGCUCU | -5.11 |
| UAGGAGCAAUAUUACGACUC | -2.01 |
